- measured-on: Beta-1 adrenergic receptor (Homo sapiens, UniProt P08588)
- Sequence (P08588 whole entry): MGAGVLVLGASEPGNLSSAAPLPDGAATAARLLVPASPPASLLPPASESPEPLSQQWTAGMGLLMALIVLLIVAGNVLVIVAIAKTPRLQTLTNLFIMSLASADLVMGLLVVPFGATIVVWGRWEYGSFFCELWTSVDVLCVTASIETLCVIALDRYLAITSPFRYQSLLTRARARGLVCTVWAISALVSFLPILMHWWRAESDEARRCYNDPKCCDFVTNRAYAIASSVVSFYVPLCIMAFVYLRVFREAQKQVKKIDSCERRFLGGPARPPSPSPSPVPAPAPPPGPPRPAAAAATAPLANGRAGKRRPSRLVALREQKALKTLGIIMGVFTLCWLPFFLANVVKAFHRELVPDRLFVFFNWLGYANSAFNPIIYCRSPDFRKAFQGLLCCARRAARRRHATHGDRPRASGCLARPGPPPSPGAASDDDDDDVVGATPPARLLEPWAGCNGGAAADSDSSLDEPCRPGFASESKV
- experiment: Agonist activity at recombinant human beta1 adrenergic receptor expressed in CHO cells assessed as accumulation of cyclic AMP after 30 mins
Known EC50 of a selection of molecules

smi: Cc1n[nH]c2cc(OCCNC[C@H](O)c3cccc(NS(=O)(=O)c4ccccc4)c3)ccc12
EC50: > 10 µM

smi: Cc1n[nH]c2cc(OCCNC[C@H](O)c3cccc(NS(=O)(=O)C4CCC4)c3)ccc12
EC50: > 10 µM

====

Some compounds, each annotated with its measured inhibition at 10 µM.
- measured-on: CYP2D6 (Homo sapiens)
- Sequence (P10635 whole entry): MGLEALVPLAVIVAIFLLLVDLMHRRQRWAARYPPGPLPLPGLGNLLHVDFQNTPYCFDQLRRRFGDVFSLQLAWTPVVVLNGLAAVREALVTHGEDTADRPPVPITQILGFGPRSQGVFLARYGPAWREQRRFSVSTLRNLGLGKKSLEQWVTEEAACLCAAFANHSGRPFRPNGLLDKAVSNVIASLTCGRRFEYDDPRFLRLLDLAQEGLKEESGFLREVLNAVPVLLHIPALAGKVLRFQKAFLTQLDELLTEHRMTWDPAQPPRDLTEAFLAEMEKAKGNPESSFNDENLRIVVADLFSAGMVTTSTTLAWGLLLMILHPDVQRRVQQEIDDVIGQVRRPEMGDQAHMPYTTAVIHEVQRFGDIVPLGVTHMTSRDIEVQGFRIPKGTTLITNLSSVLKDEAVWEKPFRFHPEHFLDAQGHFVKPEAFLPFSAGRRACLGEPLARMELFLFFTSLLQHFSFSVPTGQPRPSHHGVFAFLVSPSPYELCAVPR
- experiment: Inhibition of CYP2D6 (unknown origin) at 10 uM relative to control
- Assay type: ADME
property-label: inhibition at 10 µM (%)

compound: Cc1n[nH]c2cc(OCCNC[C@H](O)c3cccc(NS(=O)(=O)C4CCC4)c3)ccc12
property-label: inhibition at 10 µM
operator-symbol: <
reading: 34

compound: Nc1nc(CC(=O)Nc2ccc(CCNC[C@H](O)c3ccccc3)cc2)cs1 [MIRABEGRON]
property-label: inhibition at 10 µM
operator-symbol: =
reading: 87

====

- experiment: Intrinsic clearance in Sprague-Dawley rat liver microsomes at 0.5 uM in presence of NADPH by LC-MS/MS analysis
- Format: ADME, microsome
- details: read-out: CLH
# note: exactly 200 mL/min/kg is not below, so it is criterion not met; use criterion met for CLint scaled at 0.5 µM strictly under it

smi: CCc1n[nH]c2cc(OCCNC[C@H](O)c3cccc(NS(C)(=O)=O)c3)ccc12
qualitative-label: criterion met

smi: CC(C)c1n[nH]c2cc(OCCNC[C@H](O)c3cccc(NS(C)(=O)=O)c3)ccc12
qualitative-label: criterion not met

smi: Cc1n[nH]c2cc(OCCNC[C@H](O)c3cccc(NS(C)(=O)=O)c3)ccc12
qualitative-label: criterion met

smi: Cc1n[nH]c2cc(OCCNC[C@H](O)c3cccc(NS(=O)(=O)C4CCC4)c3)ccc12
qualitative-label: criterion met

smi: CS(=O)(=O)Nc1cccc([C@@H](O)CNCCOc2ccc3c(C4CCC4)n[nH]c3c2)c1
qualitative-label: criterion not met

====

- measured-on: Beta-3 adrenergic receptor (Homo sapiens, UniProt P13945)
- Sequence (P13945 whole entry): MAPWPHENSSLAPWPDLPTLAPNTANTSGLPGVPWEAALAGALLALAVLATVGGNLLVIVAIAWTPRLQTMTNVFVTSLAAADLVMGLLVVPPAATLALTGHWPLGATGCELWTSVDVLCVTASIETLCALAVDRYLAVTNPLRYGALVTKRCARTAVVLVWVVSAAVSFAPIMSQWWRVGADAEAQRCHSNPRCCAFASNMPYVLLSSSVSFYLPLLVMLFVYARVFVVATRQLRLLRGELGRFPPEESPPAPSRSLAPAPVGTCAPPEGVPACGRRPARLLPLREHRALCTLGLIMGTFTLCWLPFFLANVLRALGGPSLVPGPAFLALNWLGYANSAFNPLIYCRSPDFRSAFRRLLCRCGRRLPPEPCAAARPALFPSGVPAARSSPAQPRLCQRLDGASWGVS
- experiment: Agonist activity at recombinant human beta3 adrenergic receptor expressed in CHO cells assessed as accumulation of cyclic AMP after 30 mins
pEC50: −log10 of the molar value.
property-label: pEC50

smi: Cc1n[nH]c2cc(OCCNC[C@H](O)c3cccc(NS(=O)(=O)c4ccccc4)c3)ccc12
property-label: pEC50
reading: 8.41

smi: Cc1n[nH]c2cc(OCCNC[C@H](O)c3cccc(NS(=O)(=O)C4CCC4)c3)ccc12
property-label: pEC50
reading: 7.74

smi: Cc1n[nH]c2cc(OCCNC[C@H](O)c3cccc(NS(=O)(=O)C4CCCC4)c3)ccc12
property-label: pEC50
reading: 6.51

smi: Cc1n[nH]c2cc(OCCNC[C@H](O)c3cccc(NS(=O)(=O)C(C)C)c3)ccc12
property-label: pEC50
reading: 7.15

smi: CCCS(=O)(=O)Nc1cccc([C@@H](O)CNCCOc2ccc3c(C)n[nH]c3c2)c1
property-label: pEC50
reading: 8.19

smi: Cc1n[nH]c2cc(OCCNC[C@H](O)c3cccc(NS(=O)(=O)C4CC4)c3)ccc12
property-label: pEC50
reading: 7.37
